Reference source: ChEMBL document CHEMBL1142242

# testTarget: Peroxisome proliferator-activated receptor delta (Mus musculus, UniProt P35396)
# Sequence (P35396 whole entry): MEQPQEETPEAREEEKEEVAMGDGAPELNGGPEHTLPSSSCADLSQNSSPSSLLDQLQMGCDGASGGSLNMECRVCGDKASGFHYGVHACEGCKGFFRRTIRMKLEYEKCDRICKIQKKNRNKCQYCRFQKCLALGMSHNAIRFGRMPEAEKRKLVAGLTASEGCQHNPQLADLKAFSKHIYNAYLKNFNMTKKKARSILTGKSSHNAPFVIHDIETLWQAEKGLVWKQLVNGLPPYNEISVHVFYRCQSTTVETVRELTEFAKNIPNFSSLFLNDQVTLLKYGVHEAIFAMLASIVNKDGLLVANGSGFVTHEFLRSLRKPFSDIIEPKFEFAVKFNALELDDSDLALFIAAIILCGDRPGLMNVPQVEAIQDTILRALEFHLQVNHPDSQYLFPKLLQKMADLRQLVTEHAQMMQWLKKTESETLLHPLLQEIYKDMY
# experimentDescription: Agonist activity at mouse PPAR delta
Exercise: for every item that follows, state its recorded EC50.

{"compound": "CCCc1cc(-c2nc3c(s2)CCCC3)ccc1OCCCOc1ccc2c(c1)CC[C@H]2CC(=O)O", "EC50": "8.6 nM"}

Tested on Peroxisome proliferator-activated receptor delta (Mus musculus, UniProt P35396), the item O=C(O)C[C@@H]1CCc2cc(OCCCOc3ccc(-c4nc5c(s4)CCCC5)cc3)ccc21 showed EC50 equal to 84 nM

----------
# testTarget: Cytochrome P450 1A2 (Homo sapiens, UniProt P05177)
# Sequence (P05177 whole entry): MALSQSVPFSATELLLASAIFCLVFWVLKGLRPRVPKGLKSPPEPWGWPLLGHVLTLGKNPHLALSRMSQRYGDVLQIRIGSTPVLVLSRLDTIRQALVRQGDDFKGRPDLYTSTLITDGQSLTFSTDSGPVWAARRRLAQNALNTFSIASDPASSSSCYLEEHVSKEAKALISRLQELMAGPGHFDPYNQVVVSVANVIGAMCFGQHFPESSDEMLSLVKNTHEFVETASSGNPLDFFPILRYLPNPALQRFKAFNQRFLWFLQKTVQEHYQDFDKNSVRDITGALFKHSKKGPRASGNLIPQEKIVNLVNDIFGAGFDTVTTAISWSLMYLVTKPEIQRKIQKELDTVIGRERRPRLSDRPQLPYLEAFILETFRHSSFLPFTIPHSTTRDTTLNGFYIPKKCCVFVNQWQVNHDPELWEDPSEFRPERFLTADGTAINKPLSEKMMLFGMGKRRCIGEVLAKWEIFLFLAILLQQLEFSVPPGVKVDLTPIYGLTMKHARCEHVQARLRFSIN
Answer each item with its documented IC50.

{"compound": "CCCc1cc(-c2nc3c(s2)CCCC3)ccc1OCCCOc1ccc2c(c1)CC[C@H]2CC(=O)O", "testTarget": "Cytochrome P450 1A2 (Homo sapiens, UniProt P05177)", "IC50": "> 10 µM"}

IC50 reading for O=C(O)C[C@@H]1CCc2cc(OCCCOc3ccc(-c4nc5c(s4)CCCC5)cc3)ccc21 : > 10 µM

----------
# testTarget: Peroxisome proliferator-activated receptor alpha (Mus musculus, UniProt P23204)
# Sequence (P23204 whole entry): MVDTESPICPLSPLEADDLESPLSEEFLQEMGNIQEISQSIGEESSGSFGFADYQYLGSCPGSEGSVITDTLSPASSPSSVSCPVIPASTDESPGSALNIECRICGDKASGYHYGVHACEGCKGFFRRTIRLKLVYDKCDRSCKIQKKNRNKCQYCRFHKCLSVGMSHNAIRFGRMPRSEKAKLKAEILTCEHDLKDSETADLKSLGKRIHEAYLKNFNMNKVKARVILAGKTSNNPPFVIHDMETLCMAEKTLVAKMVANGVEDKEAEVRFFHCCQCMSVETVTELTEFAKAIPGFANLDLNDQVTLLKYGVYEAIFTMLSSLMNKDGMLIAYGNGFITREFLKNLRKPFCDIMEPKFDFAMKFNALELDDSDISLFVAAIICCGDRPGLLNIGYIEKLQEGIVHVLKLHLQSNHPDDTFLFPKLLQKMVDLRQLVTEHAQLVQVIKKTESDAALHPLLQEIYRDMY
# experimentDescription: Agonist activity at mouse PPAR alpha
valueKind: EC50 (µM)
Give bare numbers, in µM.

EC50 in this record for CCCc1cc(-c2nc3c(s2)CCCC3)ccc1OCCCOc1ccc2c(c1)CC[C@H]2CC(=O)O : 7.7

----------
# testTarget: Peroxisome proliferator-activated receptor gamma (Mus musculus)
# Sequence (P37238 whole entry): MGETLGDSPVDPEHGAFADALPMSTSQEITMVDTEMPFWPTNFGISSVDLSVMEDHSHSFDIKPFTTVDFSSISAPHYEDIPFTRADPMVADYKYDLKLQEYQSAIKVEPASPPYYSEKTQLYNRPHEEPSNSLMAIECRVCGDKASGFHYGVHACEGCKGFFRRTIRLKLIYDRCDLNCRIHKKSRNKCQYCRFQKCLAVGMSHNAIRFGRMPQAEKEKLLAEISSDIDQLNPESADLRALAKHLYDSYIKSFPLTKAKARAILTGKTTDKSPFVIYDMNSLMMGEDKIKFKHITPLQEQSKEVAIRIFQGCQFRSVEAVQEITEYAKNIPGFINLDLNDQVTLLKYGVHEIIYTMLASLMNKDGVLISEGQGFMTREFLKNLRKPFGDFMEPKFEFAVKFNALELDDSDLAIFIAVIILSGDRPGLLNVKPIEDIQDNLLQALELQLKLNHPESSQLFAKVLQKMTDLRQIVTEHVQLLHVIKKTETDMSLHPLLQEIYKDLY
# experimentDescription: Agonist activity at PPAR gamma in mouse 3T3L1 cells assessed as increase in insulin receptor by IRBA
pEC50: −log10 of the molar value.
Tick 1 if pEC50 is 6 or greater. Tick 0 if pEC50 is less than 6.

Please check the record O=C(O)C[C@@H]1CCc2cc(OCCCOc3ccc4cc[nH]c4c3)ccc21 and state if its pEC50 is at or above 6.
0

Could you tell me if the measured pEC50 of CCCc1cc(-c2nc(CC(=O)O)cs2)ccc1OCCCOc1ccc2c(c1)CC[C@H]2CC(=O)O reaches 6 or more?
1

Does CCCc1c(OCCCOc2ccc3c(c2)CC[C@H]3CC(=O)O)ccc2c1ccn2C have a reported pEC50 of at least 6?
0

Does CC(=O)c1sc(-c2ccc(OCCCOc3ccc4c(c3)CC[C@H]4CC(=O)O)cc2)nc1C have a reported pEC50 of at least 6?
1

Please indicate if the recorded pEC50 for Cc1coc2cc(OCCCOc3ccc4c(c3)CC[C@H]4CC(=O)O)ccc12 meets or exceeds 6.
0

Please tell me: is the molecule COc1ccncc1-c1ccc(OCCCOc2ccc3c(c2)CC[C@H]3CC(=O)O)cc1 at or over 6 in terms of pEC50?
1

Answer whether pEC50 of COc1ccc(OCCCOc2ccc3c(c2)CC[C@H]3CC(=O)O)cc1 is greater than or equal to 6.
0

----------
# testTarget: Peroxisome proliferator-activated receptor gamma (Mus musculus, UniProt P37238)
# experimentDescription: Agonist activity at PPAR gamma in mouse 3T3L1 cells assessed as increase in insulin receptor by IRBA
valueKind: pEC50
Answers are plain numbers, as −log10 of the molar value.

Would you please look over these solved cases?
{"compound": "CCCc1cc(-c2nc(C(F)(F)F)cs2)ccc1OCCCOc1ccc2c(c1)CC[C@H]2CC(=O)O", "pEC50": 7.26}
{"compound": "Cc1nc(-c2ccc(OCCCOc3ccc4c(c3)CC[C@H]4CC(=O)O)cc2)sc1C(=O)O", "pEC50": 6.51}
{"compound": "CCc1csc(-c2ccc(OCCCOc3ccc4c(c3)CC[C@H]4CC(=O)O)cc2)n1", "pEC50": 6.06}

Hi, could you look up pEC50 for each item in my list?
1. N#Cc1ccc(OCCCOc2ccc3c(c2)CC[C@H]3CC(=O)O)cc1
2. Cc1noc2c(C)c(OCCCOc3ccc4c(c3)CC[C@H]4CC(=O)O)ccc12
3. O=C(O)C[C@@H]1CCc2cc(OCCCOc3ccc(-c4ccc(C(F)(F)F)cn4)cc3)ccc21
4. O=C(O)C[C@@H]1CCc2cc(OCCCOc3ccc4[nH]ccc4c3)ccc21

1. 6.20
2. 6.54
3. 5.74
4. 5.74

Could you report pEC50 for every entry in the following list?
1. Cc1nc(-c2ccc(OCCCOc3ccc4c(c3)CC[C@H]4CC(=O)O)cc2)sc1C
2. O=C(O)C[C@@H]1CCc2cc(OCCCOc3ccc(-c4ccsc4)cc3)ccc21
3. O=C(O)C[C@@H]1CCc2cc(OCCCOc3ccc(-c4cccnc4)cc3)ccc21

1. 6.55
2. 6.19
3. 6.26

Value sought for every listed compound: pEC50.
1. CCc1ccc(OCCCOc2ccc3c(c2)CC[C@H]3CC(=O)O)cc1
2. Cc1cccc(OCCCOc2ccc3c(c2)CC[C@H]3CC(=O)O)c1
3. Cc1cc(-c2nc(C(F)(F)F)ns2)ccc1OCCCOc1ccc2c(c1)CC[C@H]2CC(=O)O
4. CC(=O)Nc1cc(-n2ccnn2)ccc1OCCCOc1ccc2c(c1)CC[C@H]2CC(=O)O
5. CCOc1cc(C)ccc1OCCCOc1ccc2c(c1)CC[C@H]2CC(=O)O
6. CCCc1cc(-c2nc(C)c(C(=O)N(C)C)s2)ccc1OCCCOc1ccc2c(c1)CC[C@H]2CC(=O)O
7. CCCc1cc(-c2nc(C(C)(C)C)cs2)ccc1OCCCOc1ccc2c(c1)CC[C@H]2CC(=O)O

[5.21, 5.10, 6.80, 5.25, 5.91, 7.77, 7.74]

Below are 2 compounds. Give each one its pEC50.
1. CCCc1cc(-c2nc3c(s2)CCCC3)ccc1OCCCOc1ccc2c(c1)CC[C@H]2CC(=O)O
2. CCCc1ccccc1OCCCOc1ccc2c(c1)CC[C@H]2CC(=O)O

1. 7.92
2. 5.82

----------
# testTarget: Peroxisome proliferator-activated receptor gamma (Mus musculus, UniProt P37238)
# experimentDescription: Agonist activity at PPAR gamma in mouse 3T3L1 cells assessed as increase in insulin receptor by IRBA
pEC50: −log10 of the molar value.
Each entry belongs to exactly one class, chosen by where its pEC50 falls: 1: < 6; 2: ≥ 6 and < 7; 3: ≥ 7

Consider the worked cases shown below.
{"molecule": "O=C(O)C[C@@H]1CCc2cc(OCCCOc3ccc4cnoc4c3)ccc21", "assignedCategory": 1}
{"molecule": "CCc1ccc(OCCCOc2ccc3c(c2)CC[C@H]3CC(=O)O)c(OC)c1", "assignedCategory": 1}
{"molecule": "CCCc1cc(-c2nc(C)c(C(C)=O)s2)ccc1OCCCOc1ccc2c(c1)CC[C@H]2CC(=O)O", "assignedCategory": 3}
{"molecule": "CCCc1cc(-c2nc(C)c(C(=O)O)s2)ccc1OCCCOc1ccc2c(c1)CC[C@H]2CC(=O)O", "assignedCategory": 2}
{"molecule": "CCOc1nc(-c2ccc(OCCCOc3ccc4c(c3)CC[C@H]4CC(=O)O)c(OC)c2)sc1C", "assignedCategory": 2}

Band for the recorded pEC50 of CCCc1cc(-c2nccs2)ccc1OCCCOc1ccc2c(c1)CC[C@H]2CC(=O)O ?
3

Where would CCCc1cc(-c2nc(OC(C)C)cs2)ccc1OCCCOc1ccc2c(c1)CC[C@H]2CC(=O)O land among the classes by reported pEC50?
3

Into which bin does this molecule go? CCCc1cc(C#N)ccc1OCCCOc1ccc2c(c1)CC[C@H]2CC(=O)O
2

Assign a category based on measured pEC50 for O=C(O)C[C@@H]1CCc2cc(OCCCOc3ccc4c(c3)ONC4(O)C(F)(F)F)ccc21 (some centres undefined) and give only the class name.
1

Assign a bin to C=CCc1c(OCCCOc2ccc3c(c2)CC[C@H]3CC(=O)O)ccc2[nH]ccc12
1

For this molecule, which bin applies? Cc1noc2cc(OCCCOc3ccc4c(c3)CC[C@H]4CC(=O)O)ccc12
1

State the class of the molecule shown: CCCc1c(OCCCOc2ccc3c(c2)CC[C@H]3CC(=O)O)ccc2[nH]ccc12
2

Lab note: which band did COc1ncc(-c2ccc(OCCCOc3ccc4c(c3)CC[C@H]4CC(=O)O)cc2)c(OC)n1 land in?
2

# bin label for CCCc1c(OCCCOc2ccc3c(c2)CC[C@H]3CC(=O)O)ccc2c(C(F)(F)F)noc12
3
